# Tested on: IKDR in hESCs
# assay remarks: Whole-cell patch clamp, block of IKDR in undifferentiated hESCs
# Assay type: cell-based, human
# cond: pluripotent hESCs (H1)
pIC50: −log10 of the molar value.
measurement label: pIC50

> print(dat)
                 compound   assay.target  measurement.label  value.observed
1  CC[N+](CC)(CC)CC [TEA]  IKDR in hESCs              pIC50            2.68
